- Tested on: furin, P09958;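 further: purified furin at 1:10 enzyme:substrate in 50 mM HEPES pH 7.5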
- Sequence (P09958 whole entry): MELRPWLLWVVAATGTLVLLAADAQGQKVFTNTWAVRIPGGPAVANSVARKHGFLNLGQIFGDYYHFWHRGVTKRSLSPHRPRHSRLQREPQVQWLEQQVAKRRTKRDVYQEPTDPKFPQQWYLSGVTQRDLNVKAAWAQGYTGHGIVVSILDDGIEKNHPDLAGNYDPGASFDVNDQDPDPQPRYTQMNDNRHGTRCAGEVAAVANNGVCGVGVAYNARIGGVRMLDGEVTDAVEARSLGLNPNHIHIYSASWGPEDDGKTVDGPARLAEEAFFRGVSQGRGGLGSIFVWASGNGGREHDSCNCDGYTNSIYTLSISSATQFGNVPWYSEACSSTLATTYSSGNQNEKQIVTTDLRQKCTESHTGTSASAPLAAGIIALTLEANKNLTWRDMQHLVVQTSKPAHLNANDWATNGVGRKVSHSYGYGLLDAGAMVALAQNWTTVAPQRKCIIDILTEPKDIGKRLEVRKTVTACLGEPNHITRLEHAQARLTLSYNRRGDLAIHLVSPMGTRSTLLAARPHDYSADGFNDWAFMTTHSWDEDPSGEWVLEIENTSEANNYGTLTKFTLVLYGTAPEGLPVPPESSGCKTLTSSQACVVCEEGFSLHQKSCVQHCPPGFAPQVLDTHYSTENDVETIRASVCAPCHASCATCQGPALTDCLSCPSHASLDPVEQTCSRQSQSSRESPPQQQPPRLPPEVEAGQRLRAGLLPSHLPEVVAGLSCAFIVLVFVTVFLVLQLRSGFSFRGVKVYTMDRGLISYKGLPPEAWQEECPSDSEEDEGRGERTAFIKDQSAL
- Assay info: furin cleavage Z-score vs untreated control; higher = more cleavage, active = 3.5 or more, inactive = 1 or less, 8 variable residues between constant flanks
- Settings: 7.5 min
The list shows a part of the results. How many sequences the whole screen found active is unknown.
Readout kind: furin cleavage Z-score

| Residue sequence | Readout kind | Observed |
| --- | --- | --- |
| CARHRRSLRLAGNASASA [FS-1717] | furin cleavage Z-score | 6.94 |
| CAKYGRVKRGAGNASASA [FS-1354] | furin cleavage Z-score | 0.448 |
| CAGSHRRQRRAGNASASA [FS-434] | furin cleavage Z-score | 9.09 |
| CARHRRMLTPAGNASASA [FS-2946] | furin cleavage Z-score | 5.72 |
| CALLSRRPRDAGNASASA [FS-611] | furin cleavage Z-score | 10.2 |
| CAEQVVCCSMAGNASASA [HC2142] | furin cleavage Z-score | -0.416 |
| CARKKRNGLTAGNASASA [FS-2155] | furin cleavage Z-score | 5.12 |
| CAPGDPDLSDAGNASASA [HC1358] | furin cleavage Z-score | -0.316 |
| CALLFLLLADAGNASASA [HC521] | furin cleavage Z-score | -0.353 |
| CALLFRSNRDAGNASASA [FS-822] | furin cleavage Z-score | 5.19 |
| CARHRRVNGTAGNASASA [FS-2492] | furin cleavage Z-score | 0.115 |
| CALLSCLTVPAGNASASA [HC251] | furin cleavage Z-score | -1.14 |
| CAGHVKNGTMAGNASASA [HC1179] | furin cleavage Z-score | 0.572 |
| CAVILLMCAVAGNASASA [HC597] | furin cleavage Z-score | -0.0828 |
| CARMWRKNRSAGNASASA [FS-954] | furin cleavage Z-score | 7.39 |
| CALLSRVRREAGNASASA [FS-1540] | furin cleavage Z-score | 7.59 |
| CARHRRGQETAGNASASA [FS-2145] | furin cleavage Z-score | 0.466 |
| CAHFQRVKRGAGNASASA [FS-1335] | furin cleavage Z-score | 7.42 |
| CAIGTVLDQAAGNASASA [HC825] | furin cleavage Z-score | -1.51 |
| CASSNQLQRRAGNASASA [NG1] | furin cleavage Z-score | 0.397 |
| CARKKRYDRKAGNASASA [FS-2395] | furin cleavage Z-score | 4.56 |
| CARHRRRGSPAGNASASA [FS-2146] | furin cleavage Z-score | 0.761 |
| CADAHFLSQTAGNASASA [HC945] | furin cleavage Z-score | 0.613 |
| CATKSRKKREAGNASASA [FS-1493] | furin cleavage Z-score | 12.1 |
| CAMLRRTKRGAGNASASA [FS-691] | furin cleavage Z-score | -0.133 |
| CAFQARLTRSAGNASASA [FS-158] | furin cleavage Z-score | 10.8 |
| CAWDWICEVLAGNASASA [HC1151] | furin cleavage Z-score | -0.473 |
| CAYTPCSAHLAGNASASA [HC2469] | furin cleavage Z-score | -1.25 |
| CAHSRTIKRSAGNASASA [FS-1632] | furin cleavage Z-score | 5.07 |
| CASHLRVKRGAGNASASA [FS-1280] | furin cleavage Z-score | 7.98 |
